In this section, each of the molecules is paired with its reported ΔA = 100×(Af−Ai)/Ai.
Assay summary: Absorption spectra of absorption membrane before and after high temperature/high humidity evaluation (Test Example 2)
Type: physicochemical
Condition description: 85° C., 85% relative humidity, 120 hours
Numeric answer only, unit % assumed.

Request: Consider the molecule shown here: CCCCN1\C(=C/C=C/C=C/C=C/C2=[N+](CCCC)c3ccccc3C2(C)C)C(C)(C)c2ccccc21 [Comparative Example 1] What is its recorded ΔA = 100×(Af−Ai)/Ai?
Result: 69.0

More entries:
Request: Consider the molecule shown here: CCCCN1/C(=C\C=C2/CCC(/C=C/C3=[N+](CCCC)c4ccccc4C3(C)C)=C2Cl)C(C)(C)c2ccccc21 [Comparative Example 3] What is its recorded ΔA = 100×(Af−Ai)/Ai?
Result: 52.6

Request: Record: CC1(C)C(/C=C/C=C/C=C/C=C2\N(C[Si](C)(C)C)c3ccc4ccccc4c3C2(C)C)=[N+](C[Si](C)(C)C)c2ccc3ccccc3c21 [Embodiment 2]
Result: 4.2

Request: Record: CC1(C)C(/C=C/C2=C(Cl)C(=C/C=C3\N(C[Si](C)(C)C)c4ccccc4C3(C)C)/CC2)=[N+](C[Si](C)(C)C)c2ccccc21 [Embodiment 3]
Result: 6.7

Request: Record: CCCCN1\C(=C/C=C/C=C/C=C/C2=[N+](CCCC)c3ccc4ccccc4c3C2(C)C)C(C)(C)c2c1ccc1ccccc21 [Comparative Example 2]
Result: 27.1

Request: Record: CC1(C)C(/C=C/C=C/C=C/C=C2\N(C[Si](C)(C)C)c3ccccc3C2(C)C)=[N+](C[Si](C)(C)C)c2ccccc21 [Embodiment 1]
Result: 6.6

----------
Assay summary: Absorption maximum measurement
Assay type: physicochemical
Condition description: chloroform, about 10^-5 M
Reported endpoint: Maximum Absorption Wavelength (nm)
Numeric answer only, unit nm assumed.

Request: Consider the compound shown here: CCCCN1\C(=C/C=C/C=C/C=C/C2=[N+](CCCC)c3ccc4ccccc4c3C2(C)C)C(C)(C)c2c1ccc1ccccc21 [Comparative Example 2] What is its recorded Maximum Absorption Wavelength?
Result: 801

More entries:
Request: Consider the compound shown here: CCCCN1\C(=C/C=C/C=C/C=C/C2=[N+](CCCC)c3ccccc3C2(C)C)C(C)(C)c2ccccc21 [Comparative Example 1] What is its recorded Maximum Absorption Wavelength?
Result: 761

Request: Record: CCCCN1/C(=C\C=C2/CCC(/C=C/C3=[N+](CCCC)c4ccccc4C3(C)C)=C2Cl)C(C)(C)c2ccccc21 [Comparative Example 3]
Result: 815

----------
Assay summary: Transmittance of absorption membrane before and after reliability evaluation (Test Example 1)
Type: physicochemical
Condition description: silicone resin membrane about 6 μm; before reliability evaluation
In this section, each of the compounds is paired with its reported 480~560 nm Tave, B.
Numeric answer only, unit % assumed.

Consider the worked cases shown below.
Request: Consider the compound shown here: CCCCN1\C(=C/C=C/C=C/C=C/C2=[N+](CCCC)c3ccc4ccccc4c3C2(C)C)C(C)(C)c2c1ccc1ccccc21 [Comparative Example 2] What is its recorded 480~560 nm Tave, B?
Result: 91.2

Request: Record: CCCCN1\C(=C/C=C/C=C/C=C/C2=[N+](CCCC)c3ccccc3C2(C)C)C(C)(C)c2ccccc21 [Comparative Example 1]
Result: 90.1

Request: Record: CC1(C)C(/C=C/C2=C(Cl)C(=C/C=C3\N(C[Si](C)(C)C)c4ccccc4C3(C)C)/CC2)=[N+](C[Si](C)(C)C)c2ccccc21 [Embodiment 3]
Result: 91

More entries:
Request: Consider the compound shown here: CC1(C)C(/C=C/C=C/C=C/C=C2\N(C[Si](C)(C)C)c3ccc4ccccc4c3C2(C)C)=[N+](C[Si](C)(C)C)c2ccc3ccccc3c21 [Embodiment 2] What is its recorded 480~560 nm Tave, B?
Result: 91.3

Request: Record: CC1(C)C(/C=C/C=C/C=C/C=C2\N(C[Si](C)(C)C)c3ccccc3C2(C)C)=[N+](C[Si](C)(C)C)c2ccccc21 [Embodiment 1]
Result: 91.4

Request: Record: CCCCN1/C(=C\C=C2/CCC(/C=C/C3=[N+](CCCC)c4ccccc4C3(C)C)=C2Cl)C(C)(C)c2ccccc21 [Comparative Example 3]
Result: 90.4
